The measured values listed here are drawn from patent US20240270821A1.

cAMP Rel EC50, nM (1% HSA) listing for selected binders.
molecular target: human glucagon receptor (human) (UniProt P47871); assay: cell-based or functional assay
Sequence (P47871 26-477): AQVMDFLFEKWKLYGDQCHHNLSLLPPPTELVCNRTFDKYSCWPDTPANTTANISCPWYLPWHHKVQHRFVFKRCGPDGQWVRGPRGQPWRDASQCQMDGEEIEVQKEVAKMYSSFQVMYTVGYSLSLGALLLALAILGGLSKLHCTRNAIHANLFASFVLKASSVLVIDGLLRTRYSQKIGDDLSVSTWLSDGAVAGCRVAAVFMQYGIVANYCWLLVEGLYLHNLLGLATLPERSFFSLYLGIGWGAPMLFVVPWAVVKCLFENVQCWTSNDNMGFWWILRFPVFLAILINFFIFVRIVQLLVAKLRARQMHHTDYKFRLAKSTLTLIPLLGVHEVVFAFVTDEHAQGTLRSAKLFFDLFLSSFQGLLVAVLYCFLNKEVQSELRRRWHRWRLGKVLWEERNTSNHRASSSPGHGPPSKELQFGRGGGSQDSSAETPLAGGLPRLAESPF
The reply should contain only the number, in nM.

May I ask what cAMP Rel EC50, nM (1% HSA) has been recorded for YXQGTFTSDYXIXLDKKAQXAFIEYLIEGGPSSGAPPPS (synthetic construct; SITE 2: note = 2-Aminoisobutyric Acid; SITE 11: note = alpha-methyl-L-serine; SITE 13: note = alpha-methyl-leucine; SITE 17: note = Lysine is chemically modified through conjugation of the epsilon-amino group of the Lysine side chain with (2-[2-(2-Amino-ethoxy)-ethoxy]-acetyl)2-) [Example 382] ?
1050

Same lookup for YXQGTFTSDXSRXLDKKAQXAFIEYLIAGGESSGAPPPSGSEE (C-terminal amide; lysine acylated with (γ-Glu)2-C18 diacid; synthetic construct; SITE 2: note = 2-Aminoisobutyric Acid; SITE 10: note = 3-(4-Pyridyl)-L-alanine; SITE 13: note = alpha-methyl-leucine; SITE 17: note = Lysine is chemically modified through conjugation of the epsilon-amino group of the Lysine side chain with (gamma-Glu)2-CO-(CH2)16-CO2H; SITE 20:) [Example 965] , please.
430

Same lookup for YXQGTFTSDFSQXLDKKAQXAFIEYLLEXGESSGEPPPSGS (synthetic construct; SITE 2: note = 2-Aminoisobutyric Acid; SITE 13: note = alpha-methyl-leucine; SITE 17: note = Lysine is chemically modified through conjugation of the epsilon-amino group of the Lysine side chain with (2-[2-(2-Amino-ethoxy)-ethoxy]-acetyl)-(gamma-Glu)-CO-(CH2) 16-CO2H; SITE 20: n) [Example 788] , please.
1420

Same lookup for YXQGTXTSDXXIXLDXKAQXXFIEXLIEGGPSSGEPPPS (synthetic construct; SITE 2: note = 2-Aminoisobutyric Acid; SITE 6: note = alpha-methyl-2-fluoro-L-phenylalanine; SITE 10: note = 3-(4-Pyridyl)-L-alanine; SITE 11: note = alpha-methyl-L-serine; SITE 13: note = alpha-methyl-leucine; SITE 16: note = L-ornithine; SITE 17: note = Lysine is chemically mo) [Example 375] , please.
137
